Values were extracted from patent US20240376085A1.

Tested on: IL-17A-induced G-CSF production in human normal keratinocyte (NHK)
Assay: NHK assay: IL-17A-induced G-CSF production in normal human keratinocytes
Type: cell-based
Conditions: Homo sapiens, Keratinocyte, 24 h, IL-17A 5 ng/mL, average if tested more than once
Catalogue of compounds with associated IC50

# COMPOUND, IC50
rows = [
    ("O=C(CC1CC(F)(F)C1)N[C@@H](c1ccc2nc([C@@H](NC(=O)c3nonc3C3CC3)[C@@H]3C[C@@H]4[C@H](C3)C4(F)F)[nH]c2c1)C1CC1", "< 50 nM"),
    ("Cc1nonc1C(=O)N[C@@H](CO[C@@H](C)C(F)(F)F)c1nc2ccc([C@H](NC(=O)CC3CC(F)(F)C3)C3CC3)cc2[nH]1 (relative stereo)", "> 100 nM"),
    ("C[C@@H](NC(=O)CCC(F)(F)F)c1ccc2[nH]c([C@@H](NC(=O)c3cnn(CC4CCC4(F)F)n3)C3CCC(F)(F)CC3)nc2c1 (stereo partly shown)", "> 100 nM"),
    ("Cc1c(C(=O)NC(CC(C)(C)C(F)(F)F)c2nc3cc([C@@H](C)NC(=O)CCC(F)(F)F)ccc3[nH]2)cnn1CC(F)(F)F (stereo in doubt)", "> 100 nM"),
    ("Cc1nonc1C(=O)N[C@H](c1nc2ccc([C@H](NC(=O)CC3CC(F)(F)C3)C3CC3)cc2[nH]1)[C@@H]1CCCCO1 (relative stereo)", "> 100 nM"),
    ("CC(C)n1nccc1C(=O)N[C@@H](CC1CC2(C1)CC(F)(F)C2)c1nc2ccc([C@H](NC(=O)CC3CC(F)(F)C3)C3CC3)cc2[nH]1 (stereo partly shown)", "> 100 nM"),
    ("CC(C)n1nccc1C(=O)N[C@@H](CC(C)(C)C(F)(F)F)c1nc2ccc([C@H](NC(=O)CC3CC(F)(F)C3)C3CC3)cc2[nH]1", "< 50 nM"),
    ("C[C@@H](NC(=O)CC(C(F)(F)F)C(F)(F)F)c1ccc2nc([C@@H](NC(=O)c3cccc(C#N)c3)C3CCC(F)(F)CC3)[nH]c2c1", "> 100 nM"),
    ("CC(C)n1nccc1C(=O)N[C@H](c1nc2cc([C@@H](COC3CC3)NC(=O)CC3CC(F)(F)C3)ccc2[nH]1)[C@@H](C)O[C@@H](C)C(F)(F)F", "< 50 nM"),
    ("Cc1nonc1C(=O)N[C@H](c1nc2ccc([C@H](NC(=O)CC3CC(F)(F)C3)C3CC3)cc2[nH]1)[C@H]1CCCC(F)(F)C1", "< 50 nM"),
    ("CC(C)n1nccc1C(=O)N[C@@H](CO[C@@H](C)C(F)(F)F)c1nc2ccc([C@H](NC(=O)CC3CC(F)(F)C3)C3CC3)cc2[nH]1 (relative stereo)", "> 100 nM"),
    ("C[C@@H](NC(=O)CCC(F)(F)F)c1ccc2[nH]c([C@@H](NC(=O)c3csc(CCC(F)(F)F)n3)C3CCC(F)(F)CC3)nc2c1", "> 100 nM"),
    ("Cc1nonc1C(=O)N[C@@H](CC(C)(C)C(F)(F)F)c1nc2ccc([C@H](NC(=O)CC(C)C(F)(F)F)C3CC3)cc2[nH]1 (single isomer, unassigned)", "> 100 nM"),
    ("C[C@@H](NC(=O)CCC(F)(F)F)c1ccc2[nH]c([C@@H](NC(=O)C3(C(F)(F)F)CC3)C3CCC(F)(F)CC3)nc2c1", "> 100 nM"),
    ("C[C@@H](O[C@H](C)C(F)(F)F)[C@H](NC(=O)c1nonc1C1CC1)c1nc2ccc([C@H](NC(=O)C[C@H]3CC3(F)F)C3(C#N)CC3)cc2[nH]1", "< 50 nM"),
    ("CC(C)CC(NC(=O)CCC(F)(F)F)c1ccc2[nH]c([C@@H](NC(=O)c3ccnn3C)C3CCC(F)(F)CC3)nc2c1 (single isomer, unassigned)", "> 100 nM"),
    ("C[C@@H](NC(=O)CCC(F)(F)F)c1ccc2[nH]c([C@@H](NC(=O)[C@H]3CC[C@@H]3CF)C3CCC(F)(F)CC3)nc2c1 (single isomer, unassigned)", "> 100 nM"),
    ("C[C@@H](NC(=O)CCC(F)(F)F)c1ccc2[nH]c([C@@H](NC(=O)c3ncnn3CCC(F)F)C3CCC(F)(F)CC3)nc2c1", "> 100 nM"),
    ("C[C@@H](NC(=O)CCC(F)(F)F)c1ccc2[nH]c([C@@H](NC(=O)C3CC34CCC4)C3CCC(F)(F)CC3)nc2c1 (stereo partly shown)", "> 100 nM"),
    ("C[C@@H](NC(=O)CCC(F)(F)F)c1ccc2nc([C@@H](NC(=O)c3cnnn3CC3CCC3)C3CCC(F)(F)CC3)[nH]c2c1", "50 to 100 nM"),
    ("C[C@@H](NC(=O)CCC(F)(F)F)c1ccc2nc([C@@H](NC(=O)c3ccccc3)C3CCC(F)(F)CC3)[nH]c2c1", "50 to 100 nM"),
    ("Cc1nonc1C(=O)N[C@H](c1nc2cc([C@@H](COC3CC3)NC(=O)CC3CC(F)(F)C3)ccc2[nH]1)[C@@H](C)OC(C)(C)C(F)(F)F", "< 50 nM"),
]
